Test system: OVCAR-8
ASSAY: Antiproliferative activity against human OVCAR-8 cells after 24 hrs by Cell Titer Blue assay
Assay type: functional, cell-based
CONDITION DETAILS: OVCAR-8, 24 h
pIC50: −log10 of the molar value.

CHEMICAL SMILES | STUDY TARGET | pIC50
CCS(=O)(=O)Nc1ccc(Nc2c3ccccc3nc3ccccc23)c(OC)c1 | OVCAR-8 | 5.38
